These entries and their values trace back to patent US20240052052A1.

Biological target: T1, human CD24 (human, UniProt P25063 27-59, heavily glycosylated, GPI-anchored (as described in the background))
T1 chain (looked up): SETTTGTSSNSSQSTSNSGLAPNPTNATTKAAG
Test: cell-based or functional assay
Readout type: Max phagocytosis Index (%), phagocytosis against HT-29 cells

>>> observed_value("ch81A7A10-hIgG4 (antibody, V domains shown) VH: QVQLKESGPGLVAPLQSLSITCTVSGFSLSSYGVSWVRQLPGKGLEWLGVIWGDGSTDYHSTLTSRLSFSKDNSESQVFLKLNSLQTDDTATYYCAIFYGYDEGFAYWGQGTLVTVSA VL: ENVLTQSPAIMSAFLGEKVTMSCRASSTVNYMYWYQQKSDASPKVWIYYTSRLAPGVPARFSGSGSGNSFSLTISSMEGEDAATYYCQQFTSSPLTFGAGTKLELR")
78.4
